Assay: Rat in vivo pharmacokinetic assay (IV and PO)
Design: species or system SD rats
Conditions: plasma; male SD rat, PO, 5 mg/kg; read-out: T1/2 (half-life) (converted)
Quantity: half-life (min)
Supply the numeric figure in min, leaving out any unit text.

See these solved cases before continuing.
OC[C@H]1OC(c2ccc(Cl)c(Cc3ccc(OC4C5COCC54)cc3)c2)[C@H](O)[C@@H](O)[C@@H]1O (stereo partly shown)	106
OC[C@H]1OC(c2ccc(Cl)c(Cc3ccc(OC4CC5CC5C4)cc3)c2)[C@H](O)[C@@H](O)[C@@H]1O (stereo partly shown)	440
OC[C@H]1O[C@@H](c2ccc(Cl)c(Cc3ccc(O[C@H]4CCOC4)cc3)c2)[C@H](O)[C@@H](O)[C@@H]1O [BI-10773, reference compound]	79.8

Field: next molecule
Lookup: GET /values?readout=half-life&item= OC[C@H]1OC(c2ccc(Cl)c(Cc3ccc(C4CCC5(CCC5)CC4)cc3)c2)[C@H](O)[C@@H](O)[C@@H]1O (stereo partly shown)
Found: 202
